Parameter: MIC90. Scope: all listed entries.
system: Candida albicans; test: Antifungal activity against fluconazole-resistant Candida albicans DSY348 harboring ERG11 gene mutant and increase expressing of CDR1 and CDR2 genes after 24 hrs by visually and spectrophotometric analysis; format: functional; settings: DSY348, 24 h
Only the number, expressed in µg/mL, is required.

Reference set, count: 4
Would you mind telling me what MIC90 value was observed for C/C=C/CNC(=N)NCCCCCCCCN1CCCCOC(=O)CCNC(=N)NC1=O.O=C(O)C(F)(F)F ?
8

Would you mind telling me what MIC90 value was observed for C/C=C/CNC(=N)NCCCCCCCCN1CCCCCOc2ccccc2CNC(=N)NC1=O.O=C(O)C(F)(F)F ?
2

Would you mind telling me what MIC90 value was observed for N=C(NCCCCCCCCN1CCCCCCCCNC(=N)NC1=O)NCC1CC1.O=C(O)C(F)(F)F ?
2

Would you mind telling me what MIC90 value was observed for C/C=C/CNC(=N)NCCCCCCCCN1CCCCCOC(=O)CCNC(=N)NC1=O.O=C(O)C(F)(F)F ?
8

---
Would you mind telling me what MIC90 value was observed for C[C@@H](c1ncncc1F)[C@](O)(Cn1cncn1)c1ccc(F)cc1F ?
0.25

Would you mind telling me what MIC90 value was observed for C/C=C/CNC(=N)NCCCCCCCCN1CCCCCCOc2ccccc2CNC(=N)NC1=O.O=C(O)C(F)(F)F ?
5

Would you mind telling me what MIC90 value was observed for C/C=C/CNC(=N)NCCCCCCCCN1CCCCOc2ccccc2CNC(=N)NC1=O.O=C(O)C(F)(F)F ?
8
